Data provenance: patent US20250099420A1

Study Target: GPR139 (Homo sapiens)
Sequence (Q6DWJ6 1-353): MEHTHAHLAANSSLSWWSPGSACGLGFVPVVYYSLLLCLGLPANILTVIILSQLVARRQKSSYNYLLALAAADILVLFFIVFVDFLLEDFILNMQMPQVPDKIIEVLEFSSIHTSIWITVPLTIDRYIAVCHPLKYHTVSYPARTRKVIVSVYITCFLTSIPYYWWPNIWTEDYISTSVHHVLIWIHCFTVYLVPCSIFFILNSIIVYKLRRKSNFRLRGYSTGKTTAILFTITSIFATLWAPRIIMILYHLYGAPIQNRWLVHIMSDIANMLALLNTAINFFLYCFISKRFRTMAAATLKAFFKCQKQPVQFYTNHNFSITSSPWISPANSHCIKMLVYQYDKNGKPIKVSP
Protocol Summary: GPR139 Agonist titration / agonist counterscreen assay (calcium detection, HEK-GPR139 cells)
Type: cell-based
Parameters: expressed in transfected cells; host or cells: HEK Aequorin cells, Maxcyte transient transfection
Experimental Conditions: GPR139 Agonist Activity
Measurement Label: Lipophilic Efficiency (logD)

[
  {
    "Compound": "O=C(CSc1ccc(Cl)cc1)NNC(=O)c1ccc([N+](=O)[O-])cc1",
    "Study Target": "GPR139 (Homo sapiens)",
    "Lipophilic Efficiency (logD)": 3.68
  },
  {
    "Compound": "Cc1ccc(CC2CCC(CC(=O)CC3CCCCCCC3)C2=O)cc1 (stereo not drawn)",
    "Study Target": "GPR139 (Homo sapiens)",
    "Lipophilic Efficiency (logD)": 2.62
  },
  {
    "Compound": "Cc1ccc(CN2CC34C=CC(O3)C(C(=O)NCCC3=CCCCC3)C4C2=O)cc1 (stereo not drawn)",
    "Study Target": "GPR139 (Homo sapiens)",
    "Lipophilic Efficiency (logD)": 2.87
  }
]

====

Study Target: GPR139 (Homo sapiens, UniProt Q6DWJ6)
Measurement Label: GPR139 Antagonist Activity Lipophilic Efficiency (logD)

(1) Cc1cc(C(=O)N/N=C/c2cn(Cc3ccccc3)c3ccccc23)n[nH]1 [SR-01000110742]
(2) CCc1ccccc1NC(=O)CSc1nnc(-c2ccccc2)c(-c2ccccc2)n1 [SR-01000581835]
# query: argmin of GPR139 Antagonist Activity Lipophilic Efficiency (logD) over 1 and 2 Write down the label attached to your selection.
2
(2: −850.1E−3, 1: 1.95)

(I) O=C(Nc1ccccc1C(=O)O)c1ccc(Oc2ccc([N+](=O)[O-])cc2)cc1 [SR-01000201144]
(II) COc1ccc(-n2cc(-c3ccccc3)nc2SCC(=O)Nc2ccccc2C)cc1 [SR-01000555409]
(III) CC(C)C(=O)N1CCN(c2nc(-c3ccccc3)c3c(c2C#N)CCCC3)CC1 [SR-01000000597]
(IV) Cc1ccc(-n2cc(-c3ccccc3)nc2SCC(=O)Nc2ccccc2)cc1 [SR-01000555455]
Rank ascending by GPR139 Antagonist Activity Lipophilic Efficiency (logD). Submit the labels in the order that the ranking request calls for.
IV, II, III, I

====

Study Target: GPR139 (Homo sapiens)
Protocol Summary: GPR139 Antagonist titration assay (calcium detection, HEK-GPR139 cells, vs EC80 of S-JNJ-63533054)
Experimental Conditions: based on logD
Measurement Label: GPR139 Antagonist Activity Lipophilic Efficiency (logD)

Reference set (6 entries):
[
  {
    "Compound": "O=C(CS(=O)(=O)c1ccccc1)Nc1ccc(Oc2ccccc2)cc1",
    "Numeric Value": 1.99
  },
  {
    "Compound": "Cc1ccc(-n2cc(-c3ccccc3)nc2OCC(=O)Nc2ccccc2C)cc1",
    "Numeric Value": "−1.4E+0"
  },
  {
    "Compound": "N#CCC(=O)c1ccccc1Oc1ccc(F)cc1",
    "Numeric Value": 2.11
  },
  {
    "Compound": "Brc1ccc2[nH]cc(-c3nnc4ccc5ccccc5n34)c2c1",
    "Numeric Value": 1.28
  },
  {
    "Compound": "Nc1cccc(C(=O)Nc2cc(O)n(-c3c(Cl)cc(Cl)cc3Cl)n2)c1",
    "Numeric Value": 1.63
  },
  {
    "Compound": "CCCCCCOC(=S)SCC(=O)Nc1ccccc1",
    "Numeric Value": 0.57
  }
]

(a) COc1ccc(-c2cccc(NS(=O)(=O)c3ccc(I)cc3)c2)nn1
(b) O=C(NCCC1CCCCC1)N1c2ccccc2Sc2ccccc21
(c) CC(=O)N1N=C(c2ccc(C)cc2)CC1c1ccccc1Cl (stereo not drawn)
Rank ascending by GPR139 Antagonist Activity Lipophilic Efficiency (logD). Submit the labels in the order that the ranking request calls for.
b, c, a
